These measurements were taken from PubChem BioAssay (NCI).

Test system: MCF7 breast
Assay: NCI tumour cell line growth inhibition, 48 h
quantity measured: TGI

Recorded TGI, per entry:
compound: CC(C)OC(=O)c1ccc(NCC2=CC(=O)C=CC2=O)cc1
result: 27.3 µM
--
compound: CCN(CCCl)c1cc(CN(C)C)cc(NC(=O)c2ccc(C(=O)Nc3cc(CN(C)C)cc(N(CC)CCCl)c3)cc2)c1
result: 0.241 µM
--
compound: O=C1NC(=O)c2ccc([N+](=O)[O-])c3cccc1c23
result: 27.9 µM
--
compound: C[N+]12CCCCC1C(COc1cccc3cccnc13)CCC2 (stereo not given)
result: > 100 µM
--
compound: O=C1CSC(c2ccccc2)N1c1nc2cc3sc(N4C(=O)CSC4c4ccccc4)nc3cc2s1 (stereo not given)
result: > 100 µM
--
compound: CC12CCCC(O)C1CCC1=CC3(CCC12)SCCS3 (stereo not given)
result: > 10 µM
--
compound: Cc1sc2nc(N(C)C)oc(=O)c2c1C
result: > 100 µM
--
compound: COc1ccc(OC)c(/C=C/C(=O)N/N=C/c2ccc(Cl)cc2)c1
result: > 57 µM
--
compound: CC(=O)OC1Oc2ccccc2-c2oc(=O)c(-c3cc4ccc(N(C)C)cc4oc3=O)cc21 (stereo not given)
result: 29.8 µM

Now consider the entry below.
Give the measured TGI of CC(=O)c1c(-c2ccc(Cl)cc2)c(-c2ccc(Cl)cc2)n[nH]c1=O .
> 100 µM

====

Tested on: SK-MEL-2 melanoma
Please answer using one outcome listed in 1 for active, -1 for inactive

Worked examples, 4 compounds total:
item smiles: Cc1cc(C)c(C(=O)CC(=O)c2cccnc2)c(C)c1
answer label: -1

item smiles: CC(=O)[CH-]C(=O)c1ccccc1.CC(=O)[CH-]C(=O)c1ccccc1.O=C([O-])c1ccc([O-])cc1.O=C([O-])c1ccc([O-])cc1.[Ti+4]
answer label: -1

item smiles: CCOC(=O)Sc1ncnc2nc[nH]c12
answer label: -1

item smiles: CCS(=O)(=O)c1ccc(OC)c(Nc2ncc(-c3cccc(C(C)=O)c3)o2)c1
answer label: -1

Now look at this one.
Answer briefly: the call reported for CCN1C(=O)CNc2ncc(-c3ccc(-c4ncn[nH]4)nc3C)nc21 in this assay.
1

====

Tested on: SF-295 CNS
Assay: NCI tumour cell line growth inhibition, 48 h
Reported values of TGI for individual entries
API: value field is a number in µM; no unit string.

For the molecule Nc1ncc(-c2cnn(CCO)c2)c2scc(-c3ccc(NC(=O)Nc4cccc(F)c4)cc3)c12 , what TGI is on record?
0.762

What TGI value was documented for this molecule, CN(C)CCCn1c2c(c3ccccc3c1=O)C(=O)c1ccccc1-2 ?
3.74

Which value of TGI has been reported for CCN(CC)CCN1CC(O)=C(c2nc(-c3ccc(Cl)cc3)cs2)C1=N in the records?
3.49

Using the record for CCCCCCCCCCCCCCCCP(=O)(O)OCC(N)C(=O)O (stereo unspecified) , report its TGI.
44.8

For COc1ccc2c(c1)C=C([N+](=O)[O-])C(C1OC(C)(C)OC1C1COC(C)(C)O1)O2 (stereo unspecified) , what is its reported TGI?
22.2

For the molecule shown here, CCC1CN2CCc3cc(OC)c(OC)cc3C2CC1CC1c2cc(OC)c(OC)cc2CCN1C(=O)C(N)Cc1ccccc1 (stereo unspecified) , give the reported TGI.
10.3

Which TGI reading was recorded for the molecule NCC(Cl)C(O)c1cnc(N)[nH]1 (stereo unspecified) ?
52.6

Which TGI is reported for this molecule? NC(N)=NCCCn1c2c(c3ccccc3c1=O)C(=O)c1ccccc1-2
7.72

Bench note: what TGI did Cc1cc(C)nc(NS(=O)(=O)c2ccc(Nc3c4ccccc4nc4c(C(=O)Nc5ccc(S(=O)(=O)Nc6cc(C)on6)cc5)cccc34)cc2)n1 show?
63.1

====

System: MCF7 breast
Assay: NCI tumour cell line growth inhibition, 48 h
# TGI annotations

Take a look at these entries with their results.
compound: NC1C/C(=N\O)c2c(Cl)sc(Cl)c21 (stereo unspecified)
TGI: 27.5 µM
--
compound: CCC(C)C(=O)OC1C(=O)OC2CC3C(C)=CC(=O)C(O)C3(C)C3C4(O)OCC23C1C(C)C4O (stereo unspecified)
TGI: > 100 µM
--
compound: COc1ccc(NC(=S)Nc2cc(C)ccn2)cc1
TGI: > 100 µM
--
compound: O=C1C2=Cc3ccccc3CCN2c2ccccc21
TGI: > 61 µM

// returns reported TGI for input c1ccc(C2=NNC3c4ccccc4-c4ccccc4N3C2)cc1 (stereo unspecified)
> 100 µM

Data request, read-out TGI, for Cc1cccc2nc(-c3ccccc3)cc(=O)n12
> 100 µM

====

System: SK-OV-3 ovarian
Experiment: NCI tumour cell line growth inhibition, 48 h
Where a SMILES comes first, the peptide text is derived from it. [ ]: non-standard residue; d: D form. Phe(4-Cl) = N[CH](Cc1ccc(Cl)cc1)C(=O)O
quantity measured: TGI (µM)
Form entry: value (µM) — number only.

Example compounds with recorded TGI:
compound: COc1ccc2c(c1)C=C([N+](=O)[O-])C(C1OC(C)(C)OC1C1COC(C)(C)O1)O2 (configuration not stated)
output unit: µM
TGI: 24.2
//
compound: CC(O)C(NC(=O)C(Cc1ccccc1)NC(=O)C(NC(=O)C(CCCCN)NC(=O)C(Cc1c[nH]c2ccccc12)NC(=O)C(Cc1ccc(O)cc1)NC(=O)C(Cc1ccc(Cl)cc1)NC(=O)C(N)Cc1ccccc1)C(C)O)C(N)=O (configuration not stated) (H-F[Phe(4-Cl)]YWKTFT-NH2; configuration not given here)
output unit: µM
TGI: 46.4
//
compound: CCOC(=O)c1c(CN2CCN(c3ccccc3)CC2)n(-c2ccccc2)c2cc(Br)c(O)cc12
output unit: µM
TGI: 80.9
//
compound: CC(=O)OC1C=C(C=O)C(O)(C=O)C2(C)CCCC(C)(C)C12 (configuration not stated)
output unit: µM
TGI: 8.68
//
compound: O=C(Nc1ccc(Cl)cc1)c1cc(S(=O)(=O)Nc2n[nH]c(Nc3ccc4ccccc4c3)n2)c(SSc2cc(Cl)c(C(=O)Nc3ccc(Cl)cc3)cc2S(=O)(=O)Nc2n[nH]c(Nc3ccc4ccccc4c3)n2)cc1Cl
output unit: µM
TGI: 66.5

Param readout = TGI; param system = SK-OV-3 ovarian; param query = CCC[CH2][Sn]1([CH2]CCC)[O]C(=O)C(C(C)C)N=Cc2ccccc2[O]1 (configuration not stated) ; response: value
1.63

API: value(readout= TGI, system= SK-OV-3 ovarian, query= CN1CCC23c4c5ccc(Oc6nnnn6-c6ccccc6)c4OC2c2[nH]c4ccccc4c2CC3(O)C1C5 (configuration not stated) )
25.4

Query the reported TGI for SK-OV-3 ovarian; item: O=c1[nH]c2cccc([N+](=O)[O-])c2c(=O)n1-c1ccc(Cl)cc1
28

Query the reported TGI for SK-OV-3 ovarian; item: CCN(CC)c1sc(N(CC)CC)c2c1SSSSS2
6.98

Provide the documented TGI with SK-OV-3 ovarian as the system for COc1cc(NC(=O)c2cc(O)c(CC=C(C)C)c(O)c2)cc2c1O[C@]1(C)CC[C@@H](O)C(C)(C)[C@H]1C2
28.8

====

Tested on: LOX IMVI melanoma
Assay: NCI tumour cell line growth inhibition, 48 h
quantity measured: log10 of TGI (log10 of the value in µM)
Short version: log10 scale, TGI, µM.

Notebook: pull reported log10 of TGI for LOX IMVI melanoma, entry CCN(CC)CCN1CC(O)=C(c2nc(-c3ccc(Cl)cc3)cs2)C1=N
0.54

Give log10 of TGI (LOX IMVI melanoma) of the following molecule: O=C(CSc1ncccn1)N/N=C/c1ccccc1OCc1ccccc1
1.56

Return log10 of TGI measured with LOX IMVI melanoma given this molecule: CCCN(CCc1ccc(-c2ccccc2)cc1)CCc1ccc2n[nH]nc2c1
1.46

====

Catalogue of TGI values
Tested on: ACHN renal
Assay: NCI tumour cell line growth inhibition, 48 h

Take a look at these entries with their results.
compound: CCN(CC)C(=O)c1cc(OC(C)C)ccc1-c1c(C)cc(OC(C)C)c(OC)c1OC
TGI: > 100 µM
--
compound: CN(C)P(=O)(/C(N)=N/Nc1ccc([N+](=O)[O-])cc1)N(C)C
TGI: > 100 µM
--
compound: CCN(CC)c1sc(N(CC)CC)c2c1SSSSS2
TGI: 3.28 µM

GET /values?readout=TGI&item= O=C1c2ccccc2-c2nnc(-c3ccc([N+](=O)[O-])cc3)cc21
> 10 µM

TGI lookup needed for COc1ccc(CNc2ccn(C3OC(CO)C(O)C3O)c(=O)n2)cc1 (stereo unspecified) , thanks.
> 100 µM

So what does the record say about TGI for O=C(O)CC1OCC=C2CN3CCC45c6ccccc6NC4C1C2CC35 (stereo unspecified) ?
> 100 µM

Please look up its TGI: CCOC(=O)/C(C#N)=C/Nc1c(C)n(C)n(-c2ccccc2)c1=O
> 100 µM

Tell me the measured TGI of CC1(n2nc(-c3ccccc3)n(-c3ccccc3)c2=O)CSC1 , please.
> 100 µM

Need TGI, item CCOC(=O)Sc1ncnc2nc[nH]c12
> 100 µM

For the compound Cc1ccc(Nc2nc3c(s2)C(=O)c2ccccc2C3=O)c(C)c1 , what TGI is on record?
30.6 µM

What value of TGI has been recorded for this entry: CC[C@@]1(O)C(=O)OCc2c1cc1n(c2=O)Cc2c-1nc1ccccc1c2/C=N\NC(=O)C[n+]1ccccc1
1.27 µM
